- assay-system: endothelin receptor of rat cerebellar membranes (Rattus norvegicus, UniProt P21451)
- Sequence (P21451 27-442): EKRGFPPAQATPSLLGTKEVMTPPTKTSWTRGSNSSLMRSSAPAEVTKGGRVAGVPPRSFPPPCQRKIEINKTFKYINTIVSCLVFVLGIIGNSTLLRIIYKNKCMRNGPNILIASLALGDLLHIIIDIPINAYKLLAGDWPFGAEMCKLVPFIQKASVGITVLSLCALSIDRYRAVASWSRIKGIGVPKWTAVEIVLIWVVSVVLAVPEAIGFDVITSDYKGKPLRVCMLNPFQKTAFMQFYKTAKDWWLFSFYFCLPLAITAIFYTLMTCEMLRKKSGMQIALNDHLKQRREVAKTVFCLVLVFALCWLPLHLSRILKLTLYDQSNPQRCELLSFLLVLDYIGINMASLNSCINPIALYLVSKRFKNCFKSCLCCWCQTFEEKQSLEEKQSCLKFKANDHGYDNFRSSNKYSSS
assay-metric: IC50 (nM)
Write the number in nM without appending the unit.

Return reported IC50; argument: C[C@](Cc1c[nH]c2ccccc12)(NC(=O)C(Cc1cccc2ccccc12)Cc1cccc2ccccc12)C(=O)O [Example 1]
600
